IC50 reference
target: Large T antigen (Simian virus 40, UniProt P03070); assay type: functional, Betapolyomavirus macacae;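 further: Confirmatory-stage PubChem screen for compounds that inhibit SV40 T antigen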
Active and inactive are the calls of the source.

In the examples that follow, each entry is paired with its recorded IC50.
IC50 measured on CC(/C=N/n1c(S)nnc1-c1[nH]nc2c1CCC2)=C\c1ccco1 = 32.3 µM (active)

Lab note: CC(/C=C1\SC(=S)N(CCCC(=O)Nc2ccc(C(=O)O)c(O)c2)C1=O)=C\c1ccccc1 gave IC50 of > 100 µM (active)

IC50 reading for COc1cc(/C=N/N=C2/C(=O)Nc3ccccc32)cc(OC)c1O : 12.4 µM (active)

Others:
get_value(item= O=C1CNC(=S)N1CCc1ccc(O)c(O)c1 , readout=IC50) returns 39.6 µM (active)

Record COc1cc(/C=C(\C#N)c2ccccn2)cc(OC)c1O . Reported IC50: 14.5 µM (active)

// IC50 value for Cc1cc(C)c2c(CCl)cc(=O)oc2c1 : 9.73 µM (active)

Item: OC1CCN(C(S)=Nc2ccc(Nc3ccccc3)cc2)CC1 | IC50: 6.93 µM (active)

Form field IC50, entry O=C1CC(=O)N(Cc2ccco2)C(=O)N1 : 76.3 µM (active)

compound Oc1ccc(/C=N/Nc2nccnc2Cl)c(O)c1 , IC50 observed: 16.7 µM (active)

* * *

target: Voltage-gated N-type calcium channel alpha-1B subunit/Amyloid beta A4 precursor protein-binding family A member 1 (Homo sapiens, UniProt Q00975+Q02410); format: protein assay
Sequence (Q00975 whole entry): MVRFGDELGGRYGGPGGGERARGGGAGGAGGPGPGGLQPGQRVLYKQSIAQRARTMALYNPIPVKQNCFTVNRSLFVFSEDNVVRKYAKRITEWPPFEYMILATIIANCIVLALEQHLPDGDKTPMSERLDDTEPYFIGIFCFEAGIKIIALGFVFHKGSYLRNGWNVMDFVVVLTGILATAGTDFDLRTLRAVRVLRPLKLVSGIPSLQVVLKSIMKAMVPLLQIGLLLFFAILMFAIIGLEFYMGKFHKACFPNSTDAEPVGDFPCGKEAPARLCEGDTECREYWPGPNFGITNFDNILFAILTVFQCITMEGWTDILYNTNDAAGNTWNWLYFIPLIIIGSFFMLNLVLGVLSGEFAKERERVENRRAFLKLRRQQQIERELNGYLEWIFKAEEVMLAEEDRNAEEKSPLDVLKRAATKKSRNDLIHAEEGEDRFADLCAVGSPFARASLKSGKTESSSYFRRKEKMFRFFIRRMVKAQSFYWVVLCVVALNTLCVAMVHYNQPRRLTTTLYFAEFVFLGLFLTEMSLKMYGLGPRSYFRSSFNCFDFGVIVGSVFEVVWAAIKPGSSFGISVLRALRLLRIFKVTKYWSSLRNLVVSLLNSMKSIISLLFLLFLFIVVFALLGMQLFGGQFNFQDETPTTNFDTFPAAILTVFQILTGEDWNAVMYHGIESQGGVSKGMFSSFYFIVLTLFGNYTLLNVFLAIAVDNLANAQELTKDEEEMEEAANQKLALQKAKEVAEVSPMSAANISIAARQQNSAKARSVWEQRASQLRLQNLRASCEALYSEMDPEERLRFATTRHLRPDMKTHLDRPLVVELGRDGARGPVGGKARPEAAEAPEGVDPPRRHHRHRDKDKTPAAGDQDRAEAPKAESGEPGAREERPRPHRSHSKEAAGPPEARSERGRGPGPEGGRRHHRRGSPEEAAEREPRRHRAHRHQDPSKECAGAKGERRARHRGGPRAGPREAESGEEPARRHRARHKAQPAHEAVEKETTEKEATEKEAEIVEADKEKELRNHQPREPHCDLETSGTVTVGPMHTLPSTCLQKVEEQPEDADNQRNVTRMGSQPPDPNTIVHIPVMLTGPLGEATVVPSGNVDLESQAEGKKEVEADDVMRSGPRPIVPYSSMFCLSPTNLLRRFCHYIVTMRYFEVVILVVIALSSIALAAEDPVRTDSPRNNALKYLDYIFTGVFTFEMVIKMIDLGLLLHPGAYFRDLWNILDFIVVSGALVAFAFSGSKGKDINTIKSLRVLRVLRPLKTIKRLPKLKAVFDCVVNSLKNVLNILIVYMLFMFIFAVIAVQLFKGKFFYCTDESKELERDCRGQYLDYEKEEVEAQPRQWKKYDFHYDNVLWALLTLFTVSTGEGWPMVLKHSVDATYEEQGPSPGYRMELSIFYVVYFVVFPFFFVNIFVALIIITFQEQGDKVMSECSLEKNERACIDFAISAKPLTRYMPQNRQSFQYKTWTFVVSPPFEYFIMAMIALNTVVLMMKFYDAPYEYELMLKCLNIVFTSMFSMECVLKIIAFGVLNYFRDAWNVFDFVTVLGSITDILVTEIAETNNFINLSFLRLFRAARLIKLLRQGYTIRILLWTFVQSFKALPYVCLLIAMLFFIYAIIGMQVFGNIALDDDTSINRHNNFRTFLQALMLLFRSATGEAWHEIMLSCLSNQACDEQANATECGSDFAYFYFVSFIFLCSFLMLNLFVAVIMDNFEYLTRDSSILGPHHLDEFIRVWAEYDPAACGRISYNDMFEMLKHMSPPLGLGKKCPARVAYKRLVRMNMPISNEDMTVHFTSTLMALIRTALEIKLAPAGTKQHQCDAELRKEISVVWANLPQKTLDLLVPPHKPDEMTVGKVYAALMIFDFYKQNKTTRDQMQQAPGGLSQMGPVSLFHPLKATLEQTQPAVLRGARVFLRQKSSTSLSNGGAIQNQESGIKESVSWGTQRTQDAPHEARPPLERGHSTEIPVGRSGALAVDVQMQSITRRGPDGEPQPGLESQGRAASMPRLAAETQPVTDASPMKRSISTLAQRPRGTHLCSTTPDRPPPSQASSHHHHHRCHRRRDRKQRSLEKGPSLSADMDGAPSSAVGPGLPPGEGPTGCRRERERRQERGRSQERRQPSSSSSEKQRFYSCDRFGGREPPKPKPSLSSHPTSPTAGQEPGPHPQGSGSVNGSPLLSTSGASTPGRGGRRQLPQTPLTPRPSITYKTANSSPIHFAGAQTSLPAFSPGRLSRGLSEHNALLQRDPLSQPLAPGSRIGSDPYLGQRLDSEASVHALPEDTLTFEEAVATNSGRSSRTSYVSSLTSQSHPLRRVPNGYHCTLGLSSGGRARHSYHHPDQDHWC
Sequence (Q02410 whole entry): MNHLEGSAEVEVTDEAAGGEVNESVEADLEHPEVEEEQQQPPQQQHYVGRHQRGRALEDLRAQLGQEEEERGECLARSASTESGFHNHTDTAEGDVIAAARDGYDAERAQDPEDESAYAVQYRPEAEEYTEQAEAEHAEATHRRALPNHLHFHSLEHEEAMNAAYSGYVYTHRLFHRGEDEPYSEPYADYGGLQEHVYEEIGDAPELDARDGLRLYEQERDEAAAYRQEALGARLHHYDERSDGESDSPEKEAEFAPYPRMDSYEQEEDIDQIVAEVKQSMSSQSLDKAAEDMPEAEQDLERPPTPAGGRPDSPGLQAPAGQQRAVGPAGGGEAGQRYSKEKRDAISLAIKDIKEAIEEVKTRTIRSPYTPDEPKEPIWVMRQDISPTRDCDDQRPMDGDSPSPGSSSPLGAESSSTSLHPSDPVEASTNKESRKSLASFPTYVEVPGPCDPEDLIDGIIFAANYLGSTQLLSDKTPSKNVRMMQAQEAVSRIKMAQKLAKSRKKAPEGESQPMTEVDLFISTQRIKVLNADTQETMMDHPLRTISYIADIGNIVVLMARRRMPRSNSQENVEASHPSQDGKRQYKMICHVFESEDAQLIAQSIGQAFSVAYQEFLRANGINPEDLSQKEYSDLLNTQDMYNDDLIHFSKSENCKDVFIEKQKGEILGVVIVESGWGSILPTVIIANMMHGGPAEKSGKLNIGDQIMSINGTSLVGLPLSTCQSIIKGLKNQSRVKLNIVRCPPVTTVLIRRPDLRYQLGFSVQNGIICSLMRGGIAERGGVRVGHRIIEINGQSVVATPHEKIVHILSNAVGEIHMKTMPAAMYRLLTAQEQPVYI
Active and inactive are the calls of the source.
# IC50 per entry

Here are 3 compounds together with their reported answers.
Summary for this compound, O=C1C=C(c2ccccc2)C(=O)N1Nc1ccccc1 : IC50 is 20.4 µM (active)

Recorded result, CC(=O)NC1=NC(=O)/C(=C/c2cn(C(C)=O)nc2-c2ccccc2)S1 , IC50: > 56.8 µM (not active)

Record summary for O=C1Nc2ccccc2C(=O)C1(Cl)Cc1ccccc1 (stereo unspecified) : reported IC50 = 23.3 µM (active)

---
Entry O=c1[nH]c2ccccc2c(O)c1O ; IC50 = 28.5 µM (active)

Field IC50 (entry O=C(O)C1Nc2c(O)cccc2C2C=CCC12 (stereo unspecified) ) reads 8.61 µM (active)

Per the record, CCOC(=O)c1cc(-c2ccccc2)sc1NC(=O)COC(=O)c1cccc(S(N)(=O)=O)c1 has IC50 of 4.51 µM (active)

* * *

target: Sentrin-specific protease 7 (Homo sapiens, UniProt Q9BQF6); format: functional;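 further: Luminescence-based dose-response confirmation of ultra-high-throughput screening hits, measuring inhibition of SENP7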
Sequence (Q9BQF6 whole entry): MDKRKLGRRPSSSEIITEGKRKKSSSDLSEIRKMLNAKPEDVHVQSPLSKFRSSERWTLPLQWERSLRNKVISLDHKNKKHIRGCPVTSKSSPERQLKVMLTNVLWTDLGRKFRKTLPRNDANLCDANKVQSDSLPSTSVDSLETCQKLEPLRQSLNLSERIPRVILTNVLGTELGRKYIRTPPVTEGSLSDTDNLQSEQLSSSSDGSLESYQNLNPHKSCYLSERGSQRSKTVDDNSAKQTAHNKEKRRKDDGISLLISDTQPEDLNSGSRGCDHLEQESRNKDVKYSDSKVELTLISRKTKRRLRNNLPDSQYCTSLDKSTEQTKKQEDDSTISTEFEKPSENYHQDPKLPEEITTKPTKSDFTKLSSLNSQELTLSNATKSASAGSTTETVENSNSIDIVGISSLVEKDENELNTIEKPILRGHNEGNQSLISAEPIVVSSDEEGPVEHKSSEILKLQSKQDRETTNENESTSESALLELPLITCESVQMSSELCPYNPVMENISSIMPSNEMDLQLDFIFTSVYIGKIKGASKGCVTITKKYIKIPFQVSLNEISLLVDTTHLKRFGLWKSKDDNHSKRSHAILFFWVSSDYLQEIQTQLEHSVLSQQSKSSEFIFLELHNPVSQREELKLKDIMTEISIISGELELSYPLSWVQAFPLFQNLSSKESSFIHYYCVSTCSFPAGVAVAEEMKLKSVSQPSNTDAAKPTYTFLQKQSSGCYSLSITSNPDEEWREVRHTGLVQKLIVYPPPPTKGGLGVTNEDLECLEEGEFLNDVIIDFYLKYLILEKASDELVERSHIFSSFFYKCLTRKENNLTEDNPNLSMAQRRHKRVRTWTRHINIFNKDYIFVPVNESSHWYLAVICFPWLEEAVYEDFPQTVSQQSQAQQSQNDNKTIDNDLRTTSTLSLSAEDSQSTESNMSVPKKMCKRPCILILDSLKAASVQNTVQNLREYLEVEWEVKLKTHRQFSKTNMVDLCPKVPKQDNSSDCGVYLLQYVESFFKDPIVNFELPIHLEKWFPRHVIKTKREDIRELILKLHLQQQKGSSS
Active and inactive are the calls of the source.
ATTRIBUTE_MEASURED: IC50

Use these answered entries as a reference point.
Lab note: Fc1ccc(NC(=S)N2N=CCC2c2ccccc2)cc1 (stereo not given) gave IC50 of 11.8 µM (active)

The recorded IC50 for CC(=O)N(/N=C1\Sc2ccccc2C1=O)c1cccc(C)c1 is 13.8 µM (active)

Consider Clc1ccc(-c2cc3ccccc3[nH]2)cc1 . Its measured IC50 is 8.48 µM (active)

IC50 reported for this molecule Cc1cc(-n2c(C)cc(C(=O)COc3ccc(F)c(F)c3)c2C)no1 : 8.26 µM (active)

Let us examine a further case.
// C/C(=N/OC(=O)c1ccccc1Br)c1ccc(C)cc1 : IC50 value = 7.72 µM (active)

* * *

molecular target: Methionyl-tRNA synthetase, putative (Trypanosoma brucei brucei); format: functional, Trypanosoma brucei brucei strain 927/4 GUTat10.1;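 further: Read-out by fluorescence polarization, run as a confirmatory high-throughput counterscreen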;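 further: potency of MetRS inhibitors measured by reduced AMP formation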
Sequence (Q38C91 whole entry): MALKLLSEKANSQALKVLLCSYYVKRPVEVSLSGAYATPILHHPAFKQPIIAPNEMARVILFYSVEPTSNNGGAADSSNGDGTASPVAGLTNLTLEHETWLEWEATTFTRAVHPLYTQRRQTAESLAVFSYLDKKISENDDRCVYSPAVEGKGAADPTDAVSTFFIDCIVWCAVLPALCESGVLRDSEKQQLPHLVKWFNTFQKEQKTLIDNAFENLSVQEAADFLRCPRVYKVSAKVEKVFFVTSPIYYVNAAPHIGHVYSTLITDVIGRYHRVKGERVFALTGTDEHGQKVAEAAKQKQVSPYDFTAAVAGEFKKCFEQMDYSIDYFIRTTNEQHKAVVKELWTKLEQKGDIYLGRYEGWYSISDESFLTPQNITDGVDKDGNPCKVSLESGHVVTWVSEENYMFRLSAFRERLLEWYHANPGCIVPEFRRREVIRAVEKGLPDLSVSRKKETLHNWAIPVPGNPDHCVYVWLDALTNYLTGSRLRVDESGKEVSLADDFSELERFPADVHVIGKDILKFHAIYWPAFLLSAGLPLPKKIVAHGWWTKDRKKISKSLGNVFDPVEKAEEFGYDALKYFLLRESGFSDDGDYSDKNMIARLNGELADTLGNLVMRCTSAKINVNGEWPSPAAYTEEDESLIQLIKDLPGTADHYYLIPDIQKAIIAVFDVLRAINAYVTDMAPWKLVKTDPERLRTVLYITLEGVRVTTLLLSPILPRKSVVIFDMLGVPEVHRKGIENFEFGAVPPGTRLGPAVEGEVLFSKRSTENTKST
The source made the active and inactive calls.
Select the matching outcome among active, inactive

Exercise: Record lookup: outcome of this test for S=C(NCc1cccs1)Nc1cc(Cl)cc(Cl)c1 ?
Key: inactive

Exercise: # fetch the recorded call for O=C(NCc1cccs1)c1cccc(Nc2nc3cc(Br)ccc3[nH]2)c1 here
Key: inactive

Exercise: Please state the recorded outcome for this compound: Cc1ccccc1Oc1cc(NC(=O)Cn2cnc([N+](=O)[O-])c2)cc([N+](=O)[O-])c1
Key: inactive

***
Exercise: Test call, this compound: COc1cc(CNc2[nH]cnc3c4cc(C)ccc4nc2-3)cc(OC)c1
Key: active
